All values here come from ChEMBL document CHEMBL1132024.

- Assayed System: Glutamate receptor ionotropic, AMPA (Rattus norvegicus, UniProt P19490+P19491+P19492+P19493)
- Measurement Protocol: In vitro inhibition of binding of [3H]AMPA towards AMPA receptor in rat
Binary call on IC50 with cut-off 400 nM: strictly below means 1, and equality or higher means 0.

Compound: C[C@@H](NCc1cc([N+](=O)[O-])cc2[nH]c(=O)c(=O)[nH]c12)[P+]([O-])(O)O
Category: 1

Compound: C[C@H](NCc1cc(C(F)(F)F)cc2nc(O)c(O)nc12)P(=O)(O)O
Category: 0

Compound: O=[N+]([O-])c1cc(CNCCP(=O)(O)O)c2nc(O)c(O)nc2c1
Category: 0

Compound: O=C(O)CCCNCc1cc([N+](=O)[O-])cc2nc(O)c(O)nc12
Category: 0

Compound: C[C@H](NCc1cc([N+](=O)[O-])cc2nc(O)c(O)nc12)P(=O)(O)O
Category: 1

Compound: Br.CC(C)(NCc1cc([N+](=O)[O-])cc2nc(O)c(O)nc12)C(=O)O
Category: 1

Compound: C[C@@H](NCc1cc(Br)cc2nc(O)c(O)nc12)C(=O)O
Category: 0

Compound: CC(OCc1cc([N+](=O)[O-])cc2nc(O)c(O)nc12)C(=O)O (stereo not drawn)
Category: 0

Compound: Br.O=C(O)CNCc1cc(Br)cc2nc(O)c(O)nc12
Category: 0

Compound: O=C(O)COCc1cc([N+](=O)[O-])cc2nc(O)c(O)nc12
Category: 0

Compound: Br.C[C@H](NCc1cc([N+](=O)[O-])cc2nc(O)c(O)nc12)C(=O)O
Category: 1

Compound: Br.O=C(O)CNCc1cc([N+](=O)[O-])cc2nc(O)c(O)nc12
Category: 1

Compound: Br.CC[C@H](NCc1cc([N+](=O)[O-])cc2nc(O)c(O)nc12)C(=O)O
Category: 0

Compound: CC(=O)N(Cc1cc([N+](=O)[O-])cc2nc(O)c(O)nc12)C(C)P(=O)(O)O (stereo not drawn)
Category: 0

Compound: CCN(Cc1cc(C(F)(F)F)cc2nc(O)c(O)nc12)[C@@H](C)P(=O)(O)O
Category: 1

Compound: Br.C[C@@H](NCc1cc([N+](=O)[O-])cc2nc(O)c(O)nc12)C(=O)O
Category: 1

Compound: C[C@H](CP(=O)(O)O)NCc1cc([N+](=O)[O-])cc2nc(O)c(O)nc12
Category: 1

Compound: COC(=O)C(C)(C)NCc1cc([N+](=O)[O-])cc2nc(O)c(O)nc12
Category: 0

Compound: O=c1[nH]c2cc([N+](=O)[O-])cc(CNCP(=O)(O)O)c2[nH]c1=O
Category: 1

Compound: O=C(O)CCNCc1cc(Br)cc2nc(O)c(O)nc12
Category: 0

Compound: CCN(Cc1cc([N+](=O)[O-])cc2nc(O)c(O)nc12)[C@@H](C)P(=O)(O)O
Category: 1

Compound: C[C@@H](CP(=O)(O)O)NCc1cc([N+](=O)[O-])cc2nc(O)c(O)nc12
Category: 1

Compound: CCN(Cc1cc([N+](=O)[O-])cc2nc(O)c(O)nc12)[C@H](C)P(=O)(O)O
Category: 1

Compound: Br.C[C@H](NCCc1cc([N+](=O)[O-])cc2nc(O)c(O)nc12)C(=O)O
Category: 1

Compound: C[C@H](NCc1cc(Br)cc2nc(O)c(O)nc12)C(=O)O
Category: 0

Compound: Br.CCN(Cc1cc([N+](=O)[O-])cc2nc(O)c(O)nc12)CP(=O)(O)O
Category: 1

Compound: C[C@@H](NCc1cc(Br)cc2nc(O)c(O)nc12)P(=O)(O)O
Category: 0

Compound: C[C@H](NCc1cc(Br)cc2nc(O)c(O)nc12)P(=O)(O)O
Category: 0

Compound: O=P(O)(O)CNCc1cc(Br)cc2nc(O)c(O)nc12
Category: 0

Compound: O=C(O)C1CCN(Cc2cc([N+](=O)[O-])cc3nc(O)c(O)nc23)CC1
Category: 1

Compound: O=P(O)(O)CNCc1cc(C(F)(F)F)cc2nc(O)c(O)nc12
Category: 0

Compound: C[C@@H](NCc1cc(C(F)(F)F)cc2[nH]c(=O)c(=O)[nH]c12)P(=O)(O)O
Category: 0

Compound: Br.O=C(O)CCNCc1cc([N+](=O)[O-])cc2nc(O)c(O)nc12
Category: 1
